So I've got a bunch of molecules here, and I need their MIC values.
System: S. pneumoniae ATCC 49619
measurement notes: Minimal inhibitory concentration (MIC) by broth microdilution (CLSI M7-A7)
Assay type: cell-based, Streptococcus pneumoniae
assay conditions: Streptococcus pneumoniae, ATCC49619; cation-adjusted Mueller Hinton Broth supplemented with 3% (v/v) lysed horse blood; microdilution method
State the answer as a number, implicitly in mg/L.

input: Requested read-out: MIC. Entry: CCNC(=O)Nc1cc2cccc(CNC(=O)OCc3ccn(C)n3)c2cn1.Cl
output: 4

input: Ok, now CCNC(=O)Nc1cc2c(-c3ccncc3)ccc(CNC(=O)OCCN3CCN(C(=O)OC(C)(C)C)CC3)c2cn1
output: 1

input: Subsequent entry: CCNC(=O)Nc1cc2cccc(CNC(=O)OCCC#N)c2cn1.Cl
output: 4

input: Would you kindly repeat that for CCNC(=O)Nc1cc2c(-c3ccncc3)ccc(CNC(=O)CCOC)c2cn1 ?
output: 1

input: Record: CCNC(=O)Nc1cc2cccc(CNC(=O)c3cccnc3)c2cn1
output: 4

input: Same for CCNC(=O)Nc1cc2c(-c3ccncc3)ccc(CNC(=O)OCC(N)=O)c2cn1.Cl
output: 2

input: And for CCNC(=O)Nc1cc2c(-c3cc(C)ncc3F)ccc(CNC(=O)OC)c2cn1.Cl ?
output: 2

input: Now give it for CCNC(=O)Nc1cc2c(-c3ccnc(C4CC4)c3)ccc(CNC(=O)OC)c2cn1 too.
output: 2

* * *

Tested on: S. pneumoniae ATCC 49619
measurement notes: Minimal inhibitory concentration (MIC) by broth microdilution (CLSI M7-A7)
Assay type: cell-based, Streptococcus pneumoniae
assay conditions: Streptococcus pneumoniae, ATCC49619; cation-adjusted Mueller Hinton Broth supplemented with 3% (v/v) lysed horse blood; microdilution method
readout name: MIC (µg/mL)
// return numeric value only (unit: µg/mL, not printed)

input: I would be grateful if you could share the reported MIC for CCNC(=O)Nc1cc2c(Cl)ccc(CNC(=O)OC(C)(C)C)c2cn1 [Example 113] .
output: 1

input: CCNC(=O)Nc1cc2cccc(CNC(=O)c3cncn3C)c2cn1 [Example 22] ?
output: 4

input: And the next one, CCNC(=O)Nc1cc2c(-c3ccncc3)ccc(CNC(=O)OCCCN3CCCCC3)c2cn1.Cl [Example 92] ?
output: 4

input: How about this compound: CCNC(=O)Nc1cc2c(-c3ccncc3)ccc(CNC(C)=O)c2cn1 [Example 64]
output: 0.5

input: What do you have for C#CCOC(=O)NCc1ccc(-c2ccc(CO)nc2)c2cc(NC(=O)NCC)ncc12.Cl [Example 142] ?
output: 1

Source: patent US8889676B2
